- MEASUREMENT_TARGET: Jack bean urease (Canavalia ensiformis)
- Construct: purchased Sigma Aldrich
- Sequence (P07374 whole entry, looked up): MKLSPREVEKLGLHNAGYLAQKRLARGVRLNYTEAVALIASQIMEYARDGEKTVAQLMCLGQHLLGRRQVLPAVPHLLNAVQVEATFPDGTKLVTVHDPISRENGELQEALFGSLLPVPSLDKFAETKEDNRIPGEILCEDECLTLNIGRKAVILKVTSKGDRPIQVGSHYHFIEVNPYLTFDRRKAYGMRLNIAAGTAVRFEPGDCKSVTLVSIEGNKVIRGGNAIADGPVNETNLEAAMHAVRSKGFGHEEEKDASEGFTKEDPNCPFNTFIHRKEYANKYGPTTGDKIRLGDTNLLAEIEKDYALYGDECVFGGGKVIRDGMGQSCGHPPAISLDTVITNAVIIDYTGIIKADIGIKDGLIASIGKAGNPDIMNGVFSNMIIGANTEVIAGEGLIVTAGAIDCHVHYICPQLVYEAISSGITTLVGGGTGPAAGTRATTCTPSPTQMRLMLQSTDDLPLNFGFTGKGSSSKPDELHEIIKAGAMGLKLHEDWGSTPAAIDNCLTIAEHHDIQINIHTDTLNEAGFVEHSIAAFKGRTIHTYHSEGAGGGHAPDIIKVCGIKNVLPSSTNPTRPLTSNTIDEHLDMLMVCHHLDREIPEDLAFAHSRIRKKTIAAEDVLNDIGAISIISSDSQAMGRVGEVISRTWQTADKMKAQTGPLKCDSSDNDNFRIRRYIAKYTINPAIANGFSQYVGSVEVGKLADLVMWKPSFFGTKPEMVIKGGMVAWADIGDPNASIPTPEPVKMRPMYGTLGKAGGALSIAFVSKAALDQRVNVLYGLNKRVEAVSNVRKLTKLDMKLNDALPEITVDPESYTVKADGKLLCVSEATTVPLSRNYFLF
- TEST_NAME: biochemical
- Type: biochemical
- CONDITION_SUMMARY: indophenol method, triplicate, thiourea positive control; read-out: Potency against urease IC50 ± SEM
OUTCOME_MEASURE: pIC50
Quick note: pIC50 values are minus log10 of concentrations in mol/L.

Prompt: Need pIC50 of NC(N)=S [thiourea, reference compound] , thanks.
Response: 4.65

* * *

Consider compounds characterized by their MIC with H. pylori.
Record the value in µM, omitting the unit from your answer.

Prompt: Need MIC of O=S(=O)(Oc1cccc(-c2nc3sccn3c2-c2ccccc2)c1)N1CCCCC1 , thanks.
Response: 200

Prompt: Need MIC of CS(=O)(=O)c1cccc(-c2c(-c3cccc(OS(=O)(=O)C4CCCCC4)c3)nc3sccn23)c1 , thanks.
Response: 22

Prompt: Need MIC of Cc1ccc(S(=O)(=O)Oc2cccc(-c3nc4sccn4c3-c3ccccc3)c2)cc1 , thanks.
Response: 150

Prompt: Need MIC of CS(=O)(=O)c1cccc(-c2c(-c3cccc(OS(=O)(=O)N4CCCCC4)c3)nc3sccn23)c1 , thanks.
Response: 800

Prompt: Need MIC of CS(=O)(=O)c1cccc(-c2c(-c3cccc(OS(=O)(=O)c4ccc(F)cc4)c3)nc3sccn23)c1 , thanks.
Response: 38

Prompt: Need MIC of NS(=O)(=O)Oc1cccc(-c2nc3sccn3c2-c2ccccc2)c1 , thanks.
Response: 50

Prompt: Need MIC of CS(=O)(=O)Oc1cccc(-c2nc3sccn3c2-c2cccc(S(C)(=O)=O)c2)c1 , thanks.
Response: 250

Prompt: Need MIC of O=S(=O)(Oc1cccc(-c2nc3sccn3c2-c2ccccc2)c1)c1ccc(F)cc1 , thanks.
Response: 200

Prompt: Need MIC of CCS(=O)(=O)Oc1cccc(-c2nc3sccn3c2-c2cccc(S(C)(=O)=O)c2)c1 , thanks.
Response: 800

Prompt: Need MIC of CS(=O)(=O)c1cccc(-c2c(-c3cccc(OS(=O)(=O)c4ccccc4)c3)nc3sccn23)c1 , thanks.
Response: 409

Prompt: Need MIC of CCCS(=O)(=O)Oc1cccc(-c2nc3sccn3c2-c2cccc(S(C)(=O)=O)c2)c1 , thanks.
Response: 800

Prompt: Need MIC of CNS(=O)(=O)Oc1cccc(-c2nc3sccn3c2-c2ccccc2)c1 , thanks.
Response: 800

Prompt: Need MIC of O=S(=O)(Oc1cccc(-c2nc3sccn3c2-c2ccccc2)c1)c1ccccc1 , thanks.
Response: 400

Prompt: Need MIC of Cc1ccc(S(=O)(=O)Oc2cccc(-c3nc4sccn4c3-c3cccc(S(C)(=O)=O)c3)c2)cc1 , thanks.
Response: 275

Prompt: Need MIC of CNS(=O)(=O)Oc1cccc(-c2nc3sccn3c2-c2cccc(S(C)(=O)=O)c2)c1 , thanks.
Response: 250

Prompt: Need MIC of CS(=O)(=O)Oc1cccc(-c2nc3sccn3c2-c2ccccc2)c1 , thanks.
Response: 19
